All figures here come from ChEMBL document CHEMBL1961873.

assayed.target: Aurora kinase C (Homo sapiens);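 further: reported value is a mean inhibition of Aurora-C from the GSK PKIS screening panel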
protocol.conditions: at 1 µM
readout.kind: inhibition (%)
Numeric answer only, unit % assumed.

Nc1nccc(-c2c(-c3ccc(F)cc3)nn3cc(C(F)(F)F)ccc23)n1
0.73
COC(=O)c1ccc2c(c1)C(=Cc1cc(Br)c(O)c(Br)c1)C(=O)N2
15.2

Let's switch to this compound now.
Quick one: inhibition of `N#Cc1cccc(Nc2nccc(-c3cnn4ncccc34)n2)c1` ?
96.7

* * *

inhibition: recorded values
assayed.target: Phosphorylase b kinase gamma catalytic chain, skeletal muscle/heart isoform (Homo sapiens);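 further: values are averaged percent inhibition of PHKG1 kinase activity, from the GSK PKIS inhibitor-set screen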
protocol.conditions: at 0.1 µM

Use the examples below as a reference point.
c1ccc(Cc2nc3ccc(Nc4ncnc5ccccc45)cc3[nH]2)cc1
2.35%
NC(=O)c1sc(-n2cnc3ccccc32)cc1OCc1ccccc1Br
2.76%
N#Cc1c(NC(=O)c2ccccc2F)sc2c1CCCC2
1.23%

Quick one: inhibition of `CN(C)CCCn1c(-c2nonc2N)nc2cnccc21` ?
2.33%

Quick one: inhibition of `Cc1nc(-c2ccccc2)n2nc(NCCCN3CCOCC3)ncc12` ?
0.52%

* * *

inhibition: recorded values
assayed.target: 3-phosphoinositide-dependent protein kinase 1 (Homo sapiens)
Sequence (whole entry): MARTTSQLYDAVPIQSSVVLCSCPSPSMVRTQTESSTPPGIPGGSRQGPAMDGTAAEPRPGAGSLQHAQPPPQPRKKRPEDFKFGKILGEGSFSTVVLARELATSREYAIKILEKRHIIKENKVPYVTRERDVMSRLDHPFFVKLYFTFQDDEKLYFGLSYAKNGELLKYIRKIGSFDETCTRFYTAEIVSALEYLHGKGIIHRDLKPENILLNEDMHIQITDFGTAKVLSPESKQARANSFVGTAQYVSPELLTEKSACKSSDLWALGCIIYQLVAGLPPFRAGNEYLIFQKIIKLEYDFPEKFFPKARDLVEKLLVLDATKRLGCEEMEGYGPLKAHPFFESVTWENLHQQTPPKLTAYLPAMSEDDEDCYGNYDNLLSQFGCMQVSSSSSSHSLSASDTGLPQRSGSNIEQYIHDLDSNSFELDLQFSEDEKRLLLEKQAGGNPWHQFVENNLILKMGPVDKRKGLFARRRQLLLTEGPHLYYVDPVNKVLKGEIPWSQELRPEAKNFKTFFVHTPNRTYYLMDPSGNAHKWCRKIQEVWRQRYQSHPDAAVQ
protocol.conditions: at 0.1 µM
Numeric answer only, unit % assumed.

c1ccc(Nc2ncc(-c3ccccc3)o2)cc1
4.59
Cc1ccc(Nc2ccnc(Nc3cccc(C(N)=O)c3)n2)cc1O
2.89
CCn1c(-c2nonc2N)nc2ccc(F)cc21
-0.67
CC(C)c1ccc(Nc2nccc(-c3cnn4ncccc34)n2)cc1
2.46
CN1CCN(C(=O)c2ccc(NC(=O)Nc3ccc(N(C)c4ccnc(Nc5ccc(CS(C)(=O)=O)cc5)n4)cc3)cc2)CC1
1.6
C[C@@H](Oc1cc(-n2cnc3ccc(OC[C@@H](O)CO)cc32)sc1C(N)=O)c1ccccc1Cl
0.22
ON=C1CCc2cc(-c3nc(C4CCNCC4)[nH]c3-c3ccncc3)ccc21
-0.07
Nc1nccc(-c2c(-c3ccc(F)cc3)nn3cc(C(F)(F)F)ccc23)n1
-0.37
COc1ccc2ncnc(Nc3ccc(OCc4ccccc4)cc3)c2c1
1.04

Let's switch to this molecule now.
Entry `CN(C)c1cc2c(Nc3ccc4c(cnn4Cc4ccccc4)c3)ncnc2cn1` , system 3-phosphoinositide-dependent protein kinase 1 (Homo sapiens): what inhibition was measured?;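 further: values are mean inhibition of PDK1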
2.47
